- Tested on: generalized trembling caused by dl-5-hydroxytryptophane
- ASSAY: Test B: potentialization in mice of generalized trembling caused by dl-5-hydroxytryptophane
- Type: in vivo
- CONDITION: Mus musculus; mice, oral; dl-5-hydroxytryptophane i.p.; read-out: Test B ED 50
For each of the compounds below, state its ED50.
Please give a number only; it is taken to be in mg/kg.

q: Endpoint output: ED50 of CC(=O)OC[C@H]1C[C@H](c2ccc(OCc3cccc([N+](=O)[O-])c3)cc2)C(=O)O1 (relative stereo) . Value?
a: 10

q: Another compound to look at: COCC1C=C(c2ccc(OCc3cccc(Cl)c3)cc2)C(=O)O1 (stereo not drawn)
a: 1.6

q: Another compound to look at: O=C1OC(CO)CC1c1ccc(OCC2CCCCC2)cc1 (stereo not drawn)
a: 9

q: Another compound to look at: COCC1CC(c2ccc(OCCCCC#N)cc2)C(=O)O1 (stereo not drawn)
a: 0.19

q: Another compound to look at: COC[C@H]1C[C@H](c2ccc(OCc3cc(C#N)cc([N+](=O)[O-])c3)cc2)C(=O)O1 (relative stereo)
a: 6.4

q: Another compound to look at: COC[C@H]1C[C@@H](c2ccc(OCc3ccccc3)cc2)C(=O)O1 (relative stereo)
a: 15.5

q: Another compound to look at: N#Cc1cccc(COc2ccc(C3CC(CO)OC3=O)cc2)c1 (stereo not drawn)
a: 16

q: Another compound to look at: CC(C)CCOc1ccc(C2CC(CO)OC2=O)cc1 (stereo not drawn)
a: 14

q: Another compound to look at: CC(=O)OC[C@H]1C[C@@H](c2ccc(OCc3cccc([N+](=O)[O-])c3)cc2)C(=O)O1 (relative stereo)
a: 3.2

Measured values drawn from patent US4346102A for this set.
